# key: entry, value: SH2 binding enrichment
Target: c-Src SH2;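 note: peptide library displayed on the E. coli surface as eCPX fusions, selected cells deep-sequenced, score is each peptide's frequency after selection divided by its frequency in the input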
Assay: SH2 binding enrichment of the phosphorylated peptide, bacterial display (enrichment ratio); higher = better substrate or ligand; peptides without Tyr show the background
Answer as a number with no unit attached.

RDMMDYMPQGV [CYP21A2_Y259_L261P]
0.391

From here, focus on the item given below.
Dear colleague, I am looking for the recorded SH2 binding enrichment of the following sequence: TYEYKYPEGSS [TGM4_Y440]
0.854

----------
Target: FGFR1 (UniProt P11362)
Sequence (P11362 whole entry, looked up): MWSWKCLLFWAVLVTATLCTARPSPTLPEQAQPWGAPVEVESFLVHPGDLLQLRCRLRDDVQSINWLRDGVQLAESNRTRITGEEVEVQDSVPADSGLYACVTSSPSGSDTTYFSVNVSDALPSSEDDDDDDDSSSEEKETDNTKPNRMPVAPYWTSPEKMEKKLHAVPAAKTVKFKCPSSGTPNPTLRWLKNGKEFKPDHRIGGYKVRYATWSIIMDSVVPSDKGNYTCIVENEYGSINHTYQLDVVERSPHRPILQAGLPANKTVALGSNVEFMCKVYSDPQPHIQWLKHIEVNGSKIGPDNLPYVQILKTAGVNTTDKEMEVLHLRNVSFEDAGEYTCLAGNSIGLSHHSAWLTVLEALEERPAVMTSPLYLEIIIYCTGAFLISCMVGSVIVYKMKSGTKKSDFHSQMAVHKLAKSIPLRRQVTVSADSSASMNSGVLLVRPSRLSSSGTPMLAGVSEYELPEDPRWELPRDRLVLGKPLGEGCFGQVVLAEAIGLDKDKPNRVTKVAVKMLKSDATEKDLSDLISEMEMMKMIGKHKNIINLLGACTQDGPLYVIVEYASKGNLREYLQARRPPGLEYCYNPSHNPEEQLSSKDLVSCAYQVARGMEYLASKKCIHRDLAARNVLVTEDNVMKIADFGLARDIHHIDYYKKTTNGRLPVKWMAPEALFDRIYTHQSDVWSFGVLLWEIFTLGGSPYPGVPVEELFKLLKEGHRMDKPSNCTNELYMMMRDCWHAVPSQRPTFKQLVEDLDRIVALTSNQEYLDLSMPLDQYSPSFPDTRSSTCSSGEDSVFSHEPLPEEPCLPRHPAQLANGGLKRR
Assay: phosphorylation enrichment, bacterial display (enrichment ratio); higher = better substrate or ligand; peptides without Tyr show the background
endpoint: phosphorylation enrichment

Solved entries (count: 3):
REEKNYKLKET [BCLAF1_Y459]
0.733
LQTFHYHGHSM [PDHA1_Y289_R288H_YF]
0.419
GVPLGYPIKAS [ELN_Y206_P211S]
0.407

Entry TNYPLYLRSLE [MTM1_Y71_R69P] , system FGFR1 (UniProt P11362): what phosphorylation enrichment was measured?
0.671

Okay, and IVKAFYVRARA [AIPL1_Y268_YF] ?
0.464

Okay, and IFGVSYGEYRY [CFTR_Y512_D513G] ?
0.603

Okay, and FFRKFYNKSED [RYR1_Y4864] ?
0.484

----------
Biological target: Hck (UniProt P08631)
Sequence (P08631 whole entry, looked up): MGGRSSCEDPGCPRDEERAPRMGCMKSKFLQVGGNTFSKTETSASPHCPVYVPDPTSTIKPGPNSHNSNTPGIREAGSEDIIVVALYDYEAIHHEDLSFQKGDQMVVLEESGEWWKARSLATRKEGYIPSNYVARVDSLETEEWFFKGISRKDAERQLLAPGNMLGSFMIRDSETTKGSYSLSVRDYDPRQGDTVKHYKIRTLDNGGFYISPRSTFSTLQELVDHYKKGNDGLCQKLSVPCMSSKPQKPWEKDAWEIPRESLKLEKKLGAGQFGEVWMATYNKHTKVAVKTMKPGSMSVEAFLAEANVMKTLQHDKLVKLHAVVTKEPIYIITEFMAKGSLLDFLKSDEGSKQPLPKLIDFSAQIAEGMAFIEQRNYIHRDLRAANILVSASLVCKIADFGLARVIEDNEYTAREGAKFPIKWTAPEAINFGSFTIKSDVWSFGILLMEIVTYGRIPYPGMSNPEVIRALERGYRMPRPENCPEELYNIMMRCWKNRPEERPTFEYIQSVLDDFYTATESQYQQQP
Test: phosphorylation enrichment, bacterial display (enrichment ratio); higher = better substrate or ligand; peptides without Tyr show the background
endpoint: phosphorylation enrichment
Answer as a number with no unit attached.

Solved entries (count: 5):
GFKVRYATWSI [FGFR1_Y210_YF]
0.512
LHRHAYPEQQQ [DPPA2_Y127_R131Q]
0.474
PLDGEYFTLQI [TP53_Y327]
2.55
REGDKYVSHGA [ASS1_Y113_A111D]
0.61
GQRDLYSGLNQ [CD3E_Y199]
12.4

Dear colleague, I am looking for the recorded phosphorylation enrichment of the following sequence: YDGKDYIALKE [HLA-A_Y147_N151K]
0.49

Okay, and KVMANYVFKAG [MAML2_Y513_M514V_YF] ?
0.435

----------
Target: Jak2 (UniProt O60674)
Sequence (O60674 whole entry, looked up): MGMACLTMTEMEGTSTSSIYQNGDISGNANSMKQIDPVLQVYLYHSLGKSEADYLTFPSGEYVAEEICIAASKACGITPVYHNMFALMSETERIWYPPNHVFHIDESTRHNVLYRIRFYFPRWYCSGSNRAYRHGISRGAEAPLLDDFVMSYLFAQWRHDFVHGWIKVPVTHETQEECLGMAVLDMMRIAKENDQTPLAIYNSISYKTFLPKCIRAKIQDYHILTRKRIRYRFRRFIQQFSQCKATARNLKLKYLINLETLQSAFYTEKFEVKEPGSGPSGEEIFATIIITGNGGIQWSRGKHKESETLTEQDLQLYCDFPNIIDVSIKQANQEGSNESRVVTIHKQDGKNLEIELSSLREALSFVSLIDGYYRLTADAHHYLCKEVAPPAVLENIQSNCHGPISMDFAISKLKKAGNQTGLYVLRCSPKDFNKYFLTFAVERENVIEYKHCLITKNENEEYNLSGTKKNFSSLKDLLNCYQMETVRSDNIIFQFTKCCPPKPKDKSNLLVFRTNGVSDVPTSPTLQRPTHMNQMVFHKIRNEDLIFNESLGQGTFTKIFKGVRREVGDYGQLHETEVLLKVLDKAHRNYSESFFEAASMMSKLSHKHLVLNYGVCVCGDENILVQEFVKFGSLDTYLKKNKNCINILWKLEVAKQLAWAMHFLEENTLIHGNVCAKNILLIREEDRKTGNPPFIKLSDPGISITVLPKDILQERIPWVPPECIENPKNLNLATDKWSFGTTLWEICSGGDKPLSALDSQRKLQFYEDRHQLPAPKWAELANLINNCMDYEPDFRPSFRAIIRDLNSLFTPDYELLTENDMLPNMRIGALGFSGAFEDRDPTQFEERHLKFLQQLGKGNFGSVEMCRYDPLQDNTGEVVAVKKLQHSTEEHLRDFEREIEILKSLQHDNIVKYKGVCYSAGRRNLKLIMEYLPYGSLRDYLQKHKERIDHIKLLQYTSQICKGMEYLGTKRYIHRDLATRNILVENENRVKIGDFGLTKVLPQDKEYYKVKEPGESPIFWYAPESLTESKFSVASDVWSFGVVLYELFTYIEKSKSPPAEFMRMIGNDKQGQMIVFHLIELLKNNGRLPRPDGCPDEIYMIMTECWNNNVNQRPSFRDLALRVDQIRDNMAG
Experiment: phosphorylation enrichment, bacterial display (enrichment ratio); higher = better substrate or ligand; peptides without Tyr show the background
Where phosphorylation enrichment equals or exceeds 1, the correct label is Criterion met; where it does not, the label is Criterion not met.

LRYDSYWSYCN [SLC20A2_Y433_S434W]
Criterion met
DTCPPYVLSQV [GJB4_Y237_G242V]
Criterion not met
PVQAAYRKVVA [HBB_Y131_Q132R]
Criterion not met
ASLLPYFPAIM [IPO4_Y518]
Criterion not met
LVMFIYAIFGM [SCN1A_Y1684]
Criterion met
HKLSSYEYDFE [BTK_Y40_Y39S]
Criterion met
LECEWYKNGVK [TTN_Y2112_P2107L]
Criterion met
QGQHWYSSSDT [CASP10_Y9_K14T]
Criterion met
RPSELYYSKIS [SMG1_Y2253_G2258S]
Criterion met
RPYVYYYSYLL [PTEN_Y177_R173P]
Criterion met

Say whether ILGRYYETGSI [PAX2_Y73] shows phosphorylation enrichment of 1 or more.
Criterion not met

Okay, and DGTESYLTVSS [PLK1_Y462] ?
Criterion not met

Okay, and EERKTYVNTML [TEK_Y1102_T1106M] ?
Criterion not met

Okay, and RLLVVYPWTER [HBB_Y36_Q40E] ?
Criterion met

----------
# key: entry, value: phosphorylation enrichment
Biological target: Hck (UniProt P08631)
Assay: phosphorylation enrichment, bacterial display (enrichment ratio); higher = better substrate or ligand; peptides without Tyr show the background
Answer as a number with no unit attached.

TVLEPYADPYY [ZC3H18_Y367]
0.834
IENPQYFSDAC [NTRK1_Y496]
0.626

From here, focus on the item given below.
Entry IGEVVYQWAVM [GRIN2A_Y502_R504W] , system Hck (UniProt P08631): what phosphorylation enrichment was measured?
1.1

----------
Target: FGFR3 (UniProt P22607)
Sequence (P22607 whole entry, looked up): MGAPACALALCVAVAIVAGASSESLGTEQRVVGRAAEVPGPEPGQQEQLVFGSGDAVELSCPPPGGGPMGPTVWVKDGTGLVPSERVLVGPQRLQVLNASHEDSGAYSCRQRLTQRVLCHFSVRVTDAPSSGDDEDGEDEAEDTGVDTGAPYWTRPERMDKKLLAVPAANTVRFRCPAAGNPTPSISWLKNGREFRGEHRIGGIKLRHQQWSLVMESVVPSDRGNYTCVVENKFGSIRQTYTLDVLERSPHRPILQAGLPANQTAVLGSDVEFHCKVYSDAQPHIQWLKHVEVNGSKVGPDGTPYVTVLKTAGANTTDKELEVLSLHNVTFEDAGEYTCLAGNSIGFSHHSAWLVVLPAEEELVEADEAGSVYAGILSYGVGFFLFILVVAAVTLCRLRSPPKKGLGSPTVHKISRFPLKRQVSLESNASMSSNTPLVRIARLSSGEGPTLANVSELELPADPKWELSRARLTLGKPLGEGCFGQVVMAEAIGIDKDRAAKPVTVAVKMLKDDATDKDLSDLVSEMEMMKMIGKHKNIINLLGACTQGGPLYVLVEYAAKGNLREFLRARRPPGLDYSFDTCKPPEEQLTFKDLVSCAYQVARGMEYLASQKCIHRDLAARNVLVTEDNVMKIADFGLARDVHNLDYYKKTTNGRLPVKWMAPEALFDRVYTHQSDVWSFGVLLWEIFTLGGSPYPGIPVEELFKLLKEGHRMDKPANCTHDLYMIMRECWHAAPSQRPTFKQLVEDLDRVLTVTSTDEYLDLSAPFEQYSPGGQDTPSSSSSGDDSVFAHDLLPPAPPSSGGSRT
Assay: phosphorylation enrichment, bacterial display (enrichment ratio); higher = better substrate or ligand; peptides without Tyr show the background
Binning rule for recorded phosphorylation enrichment: lower range: < 0.6; middle range: ≥ 0.6 and < 0.8; upper range: ≥ 0.8

Completed entries (count: 6):
GGQVFYNSEYG [FLT4_Y1333]
lower range
FITVGYVDDTQ [HLA-B_Y51_S48T]
middle range
TYEYKYPEGSS [TGM4_Y440]
middle range
SQSPHYFRSGQ [GPATCH8_Y1038_R1043Q]
lower range
KVMANYVFKAG [MAML2_Y513_M514V_YF]
lower range
TDKLFYIYTPG [SLC27A4_Y243_S247P]
upper range

Exercise: read the entry ERLWVYGMSSS [F8_Y1728_D1727V] and state which class it falls under.
middle range

Okay, and LQTFHYHGHSM [PDHA1_Y289_R288H_YF] ?
lower range

Okay, and AFLQTYSHEVS [PCDHGA5_Y753] ?
middle range

----------
Target: EPHB1 (UniProt P54762)
Sequence (P54762 whole entry, looked up): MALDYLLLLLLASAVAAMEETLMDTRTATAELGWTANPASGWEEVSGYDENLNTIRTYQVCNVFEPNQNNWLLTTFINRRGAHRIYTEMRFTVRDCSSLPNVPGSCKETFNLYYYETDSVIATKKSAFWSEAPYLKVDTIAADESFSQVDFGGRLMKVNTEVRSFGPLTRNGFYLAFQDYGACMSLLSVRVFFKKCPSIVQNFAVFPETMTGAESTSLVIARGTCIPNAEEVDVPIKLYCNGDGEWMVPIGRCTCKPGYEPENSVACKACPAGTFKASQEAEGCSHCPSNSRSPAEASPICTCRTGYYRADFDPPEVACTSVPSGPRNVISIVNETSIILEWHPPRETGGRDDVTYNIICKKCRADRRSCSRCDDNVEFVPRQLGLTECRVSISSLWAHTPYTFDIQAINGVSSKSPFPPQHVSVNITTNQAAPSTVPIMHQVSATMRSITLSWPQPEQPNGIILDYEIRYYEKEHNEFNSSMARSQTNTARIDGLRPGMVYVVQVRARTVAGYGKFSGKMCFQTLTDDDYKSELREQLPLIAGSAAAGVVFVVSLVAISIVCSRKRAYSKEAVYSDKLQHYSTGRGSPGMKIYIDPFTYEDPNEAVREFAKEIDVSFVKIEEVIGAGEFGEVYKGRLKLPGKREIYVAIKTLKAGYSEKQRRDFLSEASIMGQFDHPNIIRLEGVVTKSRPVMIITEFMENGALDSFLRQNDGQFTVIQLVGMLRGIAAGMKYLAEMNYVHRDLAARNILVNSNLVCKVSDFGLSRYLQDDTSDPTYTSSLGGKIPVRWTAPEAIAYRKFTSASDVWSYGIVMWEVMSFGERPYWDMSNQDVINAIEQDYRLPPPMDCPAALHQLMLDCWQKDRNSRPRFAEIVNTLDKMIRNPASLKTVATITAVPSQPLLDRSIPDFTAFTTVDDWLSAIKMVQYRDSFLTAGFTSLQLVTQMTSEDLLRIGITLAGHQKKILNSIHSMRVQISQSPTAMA
Experiment: phosphorylation enrichment, bacterial display (enrichment ratio); higher = better substrate or ligand; peptides without Tyr show the background
# key: entry, value: phosphorylation enrichment
Answer as a number with no unit attached.

HFMELYDLNRD [BBS2_Y648_R643H_YF]
0.625
FLAATYPTVGQ [NF1_Y2508_YF]
0.444
QGQHWYSSSDK [CASP10_Y9]
0.766
AKKVFYMIETR [SHH_Y253_V254M]
0.606
LVSCTYQLATG [FGFR2_Y608_R612T]
0.717
IYRAAYFGVYD [SLC25A4_Y191]
1.2
DSLASYLDKVR [KRT10_Y160_R156S]
0.491
QRMGTYGVRAA [ICAM2_Y260]
0.685

Dear colleague, I am looking for the recorded phosphorylation enrichment of the following sequence: VECHPYFTQPK [AKR1D1_Y199]
0.525

Okay, and LEAVSYSSRFA [RNLS_Y190_YF] ?
0.369

Okay, and SGEKPYKCSEC [ZNF543_Y283] ?
0.5

Okay, and FLTQHYDAIPQ [ANG_Y38_K41I] ?
0.715

----------
Target: EPHB2 (UniProt P29323)
Experiment: phosphorylation enrichment, bacterial display (enrichment ratio); higher = better substrate or ligand; peptides without Tyr show the background
endpoint: phosphorylation enrichment
Answer as a number with no unit attached.

Solved entries (count: 3):
MSFDRYMAVCH [OR2A5_Y123_I126V_YF]
0.838
NDTAGYFVIGG [SEL1L3_Y399_I401V]
0.642
QMEKICTQQIQ [CCNB1IP1_Y125_Y125C]
0.647

Entry RKIMGYSIRTI [IDS_Y490_I485R] , system EPHB2 (UniProt P29323): what phosphorylation enrichment was measured?
0.556

Okay, and TLLPDYEDEEE [ZNF830_Y159_S154T] ?
0.962

Okay, and FAAAGYGSLEA [EPHA10_Y959] ?
0.485

Okay, and KYVKMCDNHQL [MYO9A_Y203_Y203C] ?
0.632

Okay, and TDKLFYIYTPG [SLC27A4_Y243_S247P] ?
0.502

Okay, and TTGGFYSYGGG [KRT24_Y120_A115T] ?
1.1

Okay, and TTKVSYRASQP [MKI67_Y1737] ?
0.337

Okay, and GRLPEYNTRIA [CCDC151_Y542] ?
0.44

Okay, and GADDSYYTVRS [ZAP70_Y492_A495V] ?
0.548

Okay, and QFQLKYSETPF [SIX6OS1_Y129_YF] ?
1.12

----------
Tested on: AncSZ
Assay: phosphorylation enrichment, bacterial display (enrichment ratio); higher = better substrate or ligand; peptides without Tyr show the background
Binning rule for recorded phosphorylation enrichment: low (below 0.8), medium (0.8 to below 1), high (1 or more)

FRIGPYQPNVP [MATR3_Y784_YF]
low
NFATLYLKIFH [PDE6B_Y219_YF]
high
GGSTYYIDTNA [ACTL6A_Y69_P66S]
medium

Exercise: read the entry YRQNVYIPGSN [PCDHGA1_Y895] and state which class it falls under.
low

Okay, and APSHAYHRGVL [ANO1_Y981_G983R] ?
low

Okay, and GPGSGYTNIMR [PKLR_Y564_R559G] ?
low

Okay, and QQLVAYFSKHT [SRC_Y232_A237T_YF] ?
medium

Okay, and DAANNYARGHY [TUBA3E_Y103_S101N] ?
low

Okay, and IYRAAYFGVYD [SLC25A4_Y191] ?
high

----------
# key: entry, value: phosphorylation enrichment
Biological target: Fes (UniProt P07332)
Sequence (P07332 whole entry, looked up): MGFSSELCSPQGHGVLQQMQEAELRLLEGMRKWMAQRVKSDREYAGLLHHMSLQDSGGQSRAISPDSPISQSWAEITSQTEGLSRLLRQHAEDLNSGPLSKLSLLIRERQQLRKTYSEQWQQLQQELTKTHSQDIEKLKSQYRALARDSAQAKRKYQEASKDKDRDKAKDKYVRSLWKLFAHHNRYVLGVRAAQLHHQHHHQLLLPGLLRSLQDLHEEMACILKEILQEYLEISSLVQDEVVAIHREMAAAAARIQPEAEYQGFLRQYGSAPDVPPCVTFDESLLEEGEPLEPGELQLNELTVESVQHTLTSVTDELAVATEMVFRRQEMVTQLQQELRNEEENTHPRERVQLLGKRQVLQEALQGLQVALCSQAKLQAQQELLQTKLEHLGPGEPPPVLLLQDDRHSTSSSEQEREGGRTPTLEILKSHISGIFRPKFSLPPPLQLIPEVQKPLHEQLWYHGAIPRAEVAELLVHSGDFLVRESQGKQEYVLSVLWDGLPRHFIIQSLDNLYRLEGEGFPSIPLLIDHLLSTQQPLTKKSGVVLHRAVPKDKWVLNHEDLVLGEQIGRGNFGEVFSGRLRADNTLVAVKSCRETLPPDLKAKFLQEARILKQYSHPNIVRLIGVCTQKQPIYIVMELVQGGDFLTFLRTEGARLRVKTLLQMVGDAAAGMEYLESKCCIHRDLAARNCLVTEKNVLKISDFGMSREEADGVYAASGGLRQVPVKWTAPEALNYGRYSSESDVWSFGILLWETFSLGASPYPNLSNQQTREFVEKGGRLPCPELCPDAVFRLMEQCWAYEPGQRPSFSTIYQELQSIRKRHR
Assay: phosphorylation enrichment, bacterial display (enrichment ratio); higher = better substrate or ligand; peptides without Tyr show the background
Answer as a number with no unit attached.

LVPPRYVRSEI [PKP2_Y194_A195V]
0.94
CTTIHYNYMHN [TP53_Y234_C238H]
0.767
NACGLYYKLHN [GATA2_Y376]
1.3
REIIAYQPFGK [PRKCG_Y529_P524R_YF]
0.635
TLLPDYEDEEE [ZNF830_Y159_S154T]
1.28

Dear colleague, I am looking for the recorded phosphorylation enrichment of the following sequence: FITVGYVDDTQ [HLA-B_Y51_S48T]
1.21

Okay, and DVCKKYAEAKD [ALB_Y343_N342K] ?
1.23

Okay, and PRAEWYRDDVL [MYOM2_Y317] ?
1.46

Okay, and AFLQTYSHEVS [PCDHGA5_Y753] ?
0.971

Okay, and AGADGYDYLAP [FOXL2_Y186_G187D] ?
0.99

Okay, and QGQHWYSSSDK [CASP10_Y9] ?
1.17

Okay, and FSIAQYCCRMG [LRRK2_Y2023_G2019S_YF] ?
0.868

Okay, and RRSKMYLKTRS [LPL_Y329_S325R] ?
0.709

Okay, and FLEEEYVKAVG [TF_Y674_G671E_YF] ?
1.16
